assay: Maximum solubility of ITZA and azole analogues in solvents (HPLC); type: physicochemical; conditions: solvent J5, organic solvent or mixture, thermodynamic from solid, solvent J5; read-out: Solubility
Property label: solubility (µg/mL)
Please reply with the bare figure in µg/mL and do not write the unit itself.

solubility reported for this compound CCC(C)n1ncn(-c2ccc(N3CCN(c4ccc(OCC5COC(Cn6cncn6)(c6ccc(Cl)cc6Cl)O5)cc4)CC3)cc2)c1=O (stereo not shown) : 3540

###

assay: Stability of ITZA/POSA in solvent vehicles (HPLC); format: physicochemical; conditions: H3G/5% Dex., day 4
Property label: stability of ITZA (%)
Please reply with the bare figure in % and do not write the unit itself.

stability of ITZA reported for this compound CCC(C)n1ncn(-c2ccc(N3CCN(c4ccc(OCC5COC(Cn6cncn6)(c6ccc(Cl)cc6Cl)O5)cc4)CC3)cc2)c1=O (stereo not shown) : 99

###

experiment: Stability of ITZA/POSA in solvent vehicles (HPLC); assay type: physicochemical; details: H3D/5% dex., day 0
Property label: stability of ITZA (%)
Please reply with the bare figure in % and do not write the unit itself.

stability of ITZA reported for this compound CCC(C)n1ncn(-c2ccc(N3CCN(c4ccc(OCC5COC(Cn6cncn6)(c6ccc(Cl)cc6Cl)O5)cc4)CC3)cc2)c1=O (stereo not shown) : 100

###

assay: Stability of ITZA/POSA in solvent vehicles (HPLC); format: physicochemical; settings: H3G/10% dex., day 1
Property label: stability of ITZA (%)
Please reply with the bare figure in % and do not write the unit itself.

stability of ITZA reported for this compound CCC(C)n1ncn(-c2ccc(N3CCN(c4ccc(OCC5COC(Cn6cncn6)(c6ccc(Cl)cc6Cl)O5)cc4)CC3)cc2)c1=O (stereo not shown) [ITZA, itraconazole] : 102

###

test: Maximum solubility of ITZA and azole analogues in solvents (HPLC); type: physicochemical; details: 25% acetic acid, aqueous with cosolvent or surfactant or cyclodextrin, thermodynamic from solid, in 25% Acetic acid; read-out: Maximum solubility
Property label: solubility (µg/mL)
Please reply with the bare figure in µg/mL and do not write the unit itself.

solubility reported for this molecule CCC(C)n1ncn(-c2ccc(N3CCN(c4ccc(OCC5COC(Cn6cncn6)(c6ccc(Cl)cc6Cl)O5)cc4)CC3)cc2)c1=O (stereo not shown) [ITZA, itraconazole] : 300

###

assay: Stability of ITZA/POSA in solvent vehicles (HPLC); format: physicochemical; conditions: H3G/sal., day 3
Property label: stability of ITZA (%)
Please reply with the bare figure in % and do not write the unit itself.

stability of ITZA reported for this compound CCC(C)n1ncn(-c2ccc(N3CCN(c4ccc(OCC5COC(Cn6cncn6)(c6ccc(Cl)cc6Cl)O5)cc4)CC3)cc2)c1=O (stereo not shown) : 80

###

experiment: Stability of ITZA/POSA in solvent vehicles (HPLC); assay type: physicochemical; conditions: H3D, day 4
Property label: stability of ITZA (%)
Please reply with the bare figure in % and do not write the unit itself.

stability of ITZA reported for this molecule CCC(C)n1ncn(-c2ccc(N3CCN(c4ccc(OCC5COC(Cn6cncn6)(c6ccc(Cl)cc6Cl)O5)cc4)CC3)cc2)c1=O (stereo not shown) : 94

###

assay: Stability of ITZA/POSA in solvent vehicles (HPLC); type: physicochemical; conditions: H3G/10% dex., day 2
Property label: stability of ITZA

stability of ITZA reported for this molecule CCC(C)n1ncn(-c2ccc(N3CCN(c4ccc(OCC5COC(Cn6cncn6)(c6ccc(Cl)cc6Cl)O5)cc4)CC3)cc2)c1=O (stereo not shown) [ITZA, itraconazole] : 102%
